Numbers sourced from the supplement of paper PMC11061612.

# Lookup of reported combination Emax keyed by entry
System: LS-513 (Colorectal Carcinoma)
experimentNotes: combination Emax (second highest fraction inhibited in the dose matrix, 72 h); higher = more inhibition; extreme values may be limits of the assay
Lab note: record just the number, no unit beside it.

Query block: Reported combination Emax, compound Cc1c2c(nn1C)CSCc1cc(n(C)n1)CSc1cc(c3ccccc3c1)OCCCc1c(C(=O)O)n(C)c3c-2c(Cl)ccc13 [AZD5991] + Cc1cc2ncnn2cc1Nc1ncc2c(n1)n(C1CCOCC1)c(=O)n2C [AZD7648] (first compound max 1 µM, 7x7, partner max 10 µM) : ____
Result block: 0.319

Next:
Query block: Reported combination Emax, compound CC1(C)CCC(CN2CCN(c3ccc(C(=O)NS(=O)(=O)c4ccc(NCC5CCOCC5)c([N+](=O)[O-])c4)c(Oc4cnc5[nH]ccc5c4)c3)CC2)=C(c2ccc(Cl)cc2)C1 [Venetoclax] + CS(=O)(=O)CCNCc1ccc(-c2ccc3ncnc(Nc4ccc(OCc5cccc(F)c5)c(Cl)c4)c3c2)o1 [Lapatinib] (first compound max 1 µM, 7x7, partner max 10 µM) : ____
Result block: 0.615

Query block: Reported combination Emax, compound C=CCn1c(=O)c2cnc(Nc3ccc(N4CCN(C)CC4)cc3)nc2n1-c1cccc(C(C)(C)O)n1 [AZD1775] + C1CN(CCC1(C(=O)N[C@@H](CCO)C2=CC=C(C=C2)Cl)N)C3=NC=NC4=C3C=CN4 [Capivasertib] (first compound max 3 µM, partner max 3 µM) : ____
Result block: 0.81

Query block: Reported combination Emax, compound CN(CCO)CC[C@H](CSc1ccccc1)Nc1ccc(S(=O)(=O)NC(=O)c2ccc(N3CCC([C@@H](O)c4ccccc4-c4ccc(Cl)cc4)CC3)cc2)cc1S(=O)(=O)C(F)(F)F [AZD4320] + CS(=O)(=O)CCNCc1ccc(-c2ccc3ncnc(Nc4ccc(OCc5cccc(F)c5)c(Cl)c4)c3c2)o1 [Lapatinib] (first compound max 1 µM, 7x7, partner max 10 µM) : ____
Result block: 0.956

Query block: Reported combination Emax, compound NC1(C(=O)N[C@@H](CCO)c2ccc(Cl)cc2)CCN(c2ncnc3[nH]ccc23)CC1 [Capivasertib] + COc1nnc2ccc(N3CCC(c4ccc(OCCN5CCN(C)C(=O)[C@H]5C)cc4)CC3)nn12 [AZD5153] (first compound max 10 µM, 7x7, partner max 1 µM) : ____
Result block: 0.641

Query block: Reported combination Emax, compound Cc1c2c(nn1C)CSCc1cc(n(C)n1)CSc1cc(c3ccccc3c1)OCCCc1c(C(=O)O)n(C)c3c-2c(Cl)ccc13 [AZD5991] + CC(=O)O[C@H]1C(=O)[C@@]2(C)[C@H]([C@H](OC(=O)c3ccccc3)[C@]3(O)C[C@H](OC(=O)[C@H](O)[C@@H](NC(=O)c4ccccc4)c4ccccc4)C(C)=C1C3(C)C)[C@]1(OC(C)=O)CO[C@@H]1C[C@@H]2O [Paclitaxel] (first compound max 1 µM, 7x7, partner max 3 µM) : ____
Result block: 0.893

Query block: Reported combination Emax, compound Cc1cc2ncnn2cc1Nc1ncc2c(n1)n(C1CCOCC1)c(=O)n2C [AZD7648] + C[C@@H]1COCCN1C2=NC(=NC(=C2)C3(CC3)[S@](=N)(=O)C)C4=C5C=CNC5=NC=C4 [AZD6738] (first compound max 10 µM, 7x7, partner max 10 µM) : ____
Result block: 0.762

###

Test system: SW1783 (Low Grade Glioma)
experimentNotes: Bliss excess, mean over the matrix (fraction); higher = more synergy
recordedEndpoint: Bliss excess
Lab note: record just the number, no unit beside it.

Reference set (3 entries):
Query block: Reported Bliss excess, molecule CC1(C)CCC(CN2CCN(c3ccc(C(=O)NS(=O)(=O)c4ccc(NCC5CCOCC5)c([N+](=O)[O-])c4)c(Oc4cnc5[nH]ccc5c4)c3)CC2)=C(c2ccc(Cl)cc2)C1 [Venetoclax] + C[C@@H]1COCCN1C2=NC(=NC(=C2)C3(CC3)[S@](=N)(=O)C)C4=C5C=CNC5=NC=C4 [AZD6738] (first compound max 1 µM, 7x7, partner max 10 µM) : ____
Result block: -0.0555

Query block: Reported Bliss excess, molecule N#Cc1cnc(Nc2cc(NC[C@H]3CNCCO3)c(C(F)(F)F)cn2)cn1 [SRA737] + C=CCn1c(=O)c2cnc(Nc3ccc(N4CCN(C)CC4)cc3)nc2n1-c1cccc(C(C)(C)O)n1 [AZD1775] (first compound max 10 µM, partner max 1 µM) : ____
Result block: 0.0153

Query block: Reported Bliss excess, molecule CS(=O)(=O)CCNCc1ccc(-c2ccc3ncnc(Nc4ccc(OCc5cccc(F)c5)c(Cl)c4)c3c2)o1 [Lapatinib] + C[C@@H](Oc1cc(-c2cnn(C3CCNCC3)c2)cnc1N)c1c(Cl)ccc(F)c1Cl [Crizotinib] (first compound max 10 µM, 7x7, partner max 10 µM) : ____
Result block: -0.0306

--- query ---
Query block: Reported Bliss excess, molecule C=CCn1c(=O)c2cnc(Nc3ccc(N4CCN(C)CC4)cc3)nc2n1-c1cccc(C(C)(C)O)n1 [AZD1775] + C1CN(CCC1(C(=O)N[C@@H](CCO)C2=CC=C(C=C2)Cl)N)C3=NC=NC4=C3C=CN4 [Capivasertib] (first compound max 3 µM, partner max 3 µM) : ____
Result block: -0.0787

###

Tested on: G-292-Clone-A141B1 (Osteosarcoma)
experimentNotes: combination Emax (second highest fraction inhibited in the dose matrix, 72 h); higher = more inhibition; extreme values may be limits of the assay
# Lookup of reported combination Emax keyed by entry

Query block: Reported combination Emax, molecule COc1cccc(OCCCN)c1-c1cc(Nc2cnc(C#N)cn2)n[nH]1 [Prexasertib] + C[C@@H]1COCCN1C2=NC(=NC(=C2)C3(CC3)[S@](=N)(=O)C)C4=C5C=CNC5=NC=C4 [AZD6738] (first compound max 1 µM, 7x7, partner max 10 µM) : ____
Result block: 0.325

Query block: Reported combination Emax, molecule CCc1c2c(nc3ccc(O)cc13)-c1cc3c(c(=O)n1C2)COC(=O)[C@]3(O)CC [SN-38] + CN(C)CCCOc1ccc(-c2ccc3ncc4c(c3c2)n(C2CCOCC2)c(=O)n4C)cn1 [AZD0156] (first compound max 0.3 µM, 7x7, partner max 1 µM) : ____
Result block: 0.213

Query block: Reported combination Emax, molecule C=CCn1c(=O)c2cnc(Nc3ccc(N4CCN(C)CC4)cc3)nc2n1-c1cccc(C(C)(C)O)n1 [AZD1775] + CCc1c2c(nc3ccc(O)cc13)-c1cc3c(c(=O)n1C2)COC(=O)[C@]3(O)CC [SN-38] (first compound max 1 µM, partner max 0.3 µM) : ____
Result block: 0.464

--- query ---
Query block: Reported combination Emax, molecule Cc1c2c(nn1C)CSCc1cc(n(C)n1)CSc1cc(c3ccccc3c1)OCCCc1c(C(=O)O)n(C)c3c-2c(Cl)ccc13 [AZD5991] + CC(=O)O[C@H]1C(=O)[C@@]2(C)[C@H]([C@H](OC(=O)c3ccccc3)[C@]3(O)C[C@H](OC(=O)[C@H](O)[C@@H](NC(=O)c4ccccc4)c4ccccc4)C(C)=C1C3(C)C)[C@]1(OC(C)=O)CO[C@@H]1C[C@@H]2O [Paclitaxel] (first compound max 1 µM, 7x7, partner max 3 µM) : ____
Result block: 0.398

###

Tested on: NCI-H1793 (Lung Adenocarcinoma)
experimentNotes: Bliss excess, mean over the matrix (fraction); higher = more synergy
# Lookup of reported Bliss excess keyed by entry

Query block: Reported Bliss excess, molecule CN(CCO)CC[C@H](CSc1ccccc1)Nc1ccc(S(=O)(=O)NC(=O)c2ccc(N3CCC([C@@H](O)c4ccccc4-c4ccc(Cl)cc4)CC3)cc2)cc1S(=O)(=O)C(F)(F)F [AZD4320] + C[C@@H](Nc1cc(F)cc(F)c1)c1cc(C(=O)N(C)C)cc2c(=O)cc(N3CCOCC3)oc12 [AZD8186] (first compound max 1 µM, 7x7, partner max 3 µM) : ____
Result block: 0.0516

Next:
Query block: Reported Bliss excess, molecule Cc1cc2ncnn2cc1Nc1ncc2c(n1)n(C1CCOCC1)c(=O)n2C [AZD7648] + C=CCn1c(=O)c2cnc(Nc3ccc(N4CCN(C)CC4)cc3)nc2n1-c1cccc(C(C)(C)O)n1 [AZD1775] (first compound max 10 µM, partner max 1 µM) : ____
Result block: 0.0622

Query block: Reported Bliss excess, molecule CC(=O)c1c(C)c2cnc(Nc3ccc(N4CCNCC4)cn3)nc2n(C2CCCC2)c1=O [Palbociclib] + CN(CC[C@H](CSC1=CC=CC=C1)NC2=C(C=C(C=C2)S(=O)(=O)NC(=O)C3=CC=C(C=C3)N4CCC(CC4)[C@H](C5=CC=CC=C5C6=CC=C(C=C6)Cl)O)S(=O)(=O)C(F)(F)F)CCO [AZD4320] (first compound max 10 µM, 7x7, partner max 1 µM) : ____
Result block: -0.0299

Query block: Reported Bliss excess, molecule Cc1c2c(nn1C)CSCc1cc(n(C)n1)CSc1cc(c3ccccc3c1)OCCCc1c(C(=O)O)n(C)c3c-2c(Cl)ccc13 [AZD5991] + Cc1cc2ncnn2cc1Nc1ncc2c(n1)n(C1CCOCC1)c(=O)n2C [AZD7648] (first compound max 1 µM, 7x7, partner max 10 µM) : ____
Result block: -0.0112
